# subject_of_test: OX1 (Homo sapiens)
# Construct: expressed in transfected cells; host or cells: CHO (CHO-OX1, kept under selection antibiotic)
# Sequence (O43613 1-425): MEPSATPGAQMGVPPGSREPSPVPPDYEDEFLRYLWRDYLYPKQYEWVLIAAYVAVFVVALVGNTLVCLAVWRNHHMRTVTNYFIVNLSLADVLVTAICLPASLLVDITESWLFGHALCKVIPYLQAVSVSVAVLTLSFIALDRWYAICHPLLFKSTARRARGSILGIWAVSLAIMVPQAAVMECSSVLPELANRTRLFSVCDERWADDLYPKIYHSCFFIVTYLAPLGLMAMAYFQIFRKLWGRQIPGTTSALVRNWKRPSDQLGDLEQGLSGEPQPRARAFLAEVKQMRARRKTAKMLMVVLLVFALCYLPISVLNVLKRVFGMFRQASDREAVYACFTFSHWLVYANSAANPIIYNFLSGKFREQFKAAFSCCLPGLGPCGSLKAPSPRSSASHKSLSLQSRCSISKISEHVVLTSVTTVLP
# method_notes: Orexin receptor cell-based functional assay, [Ca2+]i by FLIPR, CHO-OX1 cells
# setup_conditions: CHO-OX1 cells, [Ca2+]i by FLIPR, antagonist dose-range 0.1 nM-10 μM, EC90 of OXA; read-out: OX1
Note to self: IC50 under 5 nM means rule met, ties and anything higher get rule not met.

>  <chemical_smiles>
Cc1ccc(-c2ccccn2)c(C(=O)N2CCC[C@@H](C)[C@H]2CNc2ncc(F)cn2)c1

>  <class_label>
rule not met

$$$$
>  <chemical_smiles>
Cc1cccc(-n2nccn2)c1C(=O)N1CCC[C@@H](C)[C@H]1CNc1ncc(C(F)(F)F)cn1

>  <class_label>
rule not met

$$$$
>  <chemical_smiles>
C[C@@H]1CCCN(C(=O)c2cc(Cl)ccc2-c2ncccn2)[C@@H]1CNc1ccc(C(F)(F)F)nn1

>  <class_label>
rule not met

$$$$
>  <chemical_smiles>
Cc1ccc(-n2nccn2)c(C(=O)N2CCC[C@@H](C)[C@H]2CNc2ccc(C(F)(F)F)cn2)n1

>  <class_label>
rule met

$$$$
>  <chemical_smiles>
C[C@@H]1CCCN(C(=O)c2ccc(F)c(F)c2-n2nccn2)[C@@H]1CNc1ccc(C(F)(F)F)cn1

>  <class_label>
rule met

$$$$
>  <chemical_smiles>
Cc1ccc(C(=O)N2CCC[C@@H](C)[C@H]2CNc2ncc(C(F)(F)F)cn2)c(-n2nccn2)c1

>  <class_label>
rule not met

$$$$

###

# subject_of_test: OX1 (Homo sapiens)
# Construct: expressed in transfected cells; host or cells: CHO (CHO-OX1, kept under selection antibiotic)
# method_notes: Orexin receptor cell-based functional assay, [Ca2+]i by FLIPR, CHO-OX1 cells
# setup_conditions: CHO-OX1 cells, [Ca2+]i by FLIPR, antagonist dose-range 0.1 nM-10 μM, EC90 of OXA; read-out: OX1
Each entry below carries its reported IC50.

>  <molecule>
Cc1ccc(-c2ccc(F)cn2)c(C(=O)N2CCC[C@@H](C)[C@H]2CNc2ccc(Cl)cn2)c1 [Example A159]

>  <IC50 / nM>
170

$$$$
>  <molecule>
COc1ccc(-n2nccn2)c(C(=O)N2CCC[C@@H](C)[C@H]2CNc2ncc(C(F)(F)F)cn2)c1F [Example A339]

>  <IC50 / nM>
5

$$$$
>  <molecule>
C[C@@H]1CCCN(C(=O)c2cc(F)ccc2-c2ncccn2)[C@@H]1CNc1ccc(Cl)cn1 [Example A229]

>  <IC50 / nM>
4

$$$$
>  <molecule>
Cc1ccc(-c2ncccn2)c(C(=O)N2CCC[C@@H](C)[C@H]2CNc2nc3cc(F)ccc3o2)c1 [Example A206]

>  <IC50 / nM>
6

$$$$
>  <molecule>
Cc1ccc(-c2cnn(C)c2)c(C(=O)N2CCC[C@@H](C)[C@H]2CNc2nc3ccccc3o2)c1 [Example A2]

>  <IC50 / nM>
61

$$$$
>  <molecule>
C[C@@H]1CCCN(C(=O)c2ccccc2-c2ncccn2)[C@@H]1CNc1ccc(C(F)(F)F)cn1 [Example A316]

>  <IC50 / nM>
4

$$$$
>  <molecule>
C[C@@H]1CCCN(C(=O)c2c(F)ccc(F)c2-c2ncccn2)[C@@H]1CNc1ccc(C(F)(F)F)cn1 [Example A334]

>  <IC50 / nM>
2

$$$$

###

pIC50 for assorted compounds
# subject_of_test: OX1 (Homo sapiens)
# Construct: expressed in transfected cells; host or cells: CHO (CHO-OX1, kept under selection antibiotic)
# Sequence (O43613 1-425): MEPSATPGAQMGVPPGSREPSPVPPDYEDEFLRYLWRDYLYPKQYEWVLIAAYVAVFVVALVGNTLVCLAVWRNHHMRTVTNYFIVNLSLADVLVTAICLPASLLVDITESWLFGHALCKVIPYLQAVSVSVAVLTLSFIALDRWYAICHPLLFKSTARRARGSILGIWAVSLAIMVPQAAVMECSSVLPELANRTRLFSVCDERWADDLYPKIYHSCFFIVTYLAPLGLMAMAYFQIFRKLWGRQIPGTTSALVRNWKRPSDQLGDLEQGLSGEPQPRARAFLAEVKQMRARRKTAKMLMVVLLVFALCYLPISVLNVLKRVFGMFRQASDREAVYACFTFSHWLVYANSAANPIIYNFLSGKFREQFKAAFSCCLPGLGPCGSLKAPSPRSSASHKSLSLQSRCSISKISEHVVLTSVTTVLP
# method_notes: Orexin receptor cell-based functional assay, [Ca2+]i by FLIPR, CHO-OX1 cells
# setup_conditions: CHO-OX1 cells, [Ca2+]i by FLIPR, antagonist dose-range 0.1 nM-10 μM, EC90 of OXA; read-out: OX1
pIC50: −log10 of the molar value.
metric: pIC50

>  <compound>
Cc1ccc(-c2cnn(C)c2)c(C(=O)N2CC3CCCC3C2CNc2nc3cc(Cl)ccc3o2)c1 (stereo not drawn)

>  <metric>
pIC50

>  <value_qualifier>
=

>  <recorded_measurement>
5.60

$$$$
>  <compound>
Cc1cncc(-c2ccc(C)cc2C(=O)N2CCC[C@@H](C)[C@H]2CNc2ccc(C(F)(F)F)cn2)c1

>  <metric>
pIC50

>  <value_qualifier>
=

>  <recorded_measurement>
8.22

$$$$
>  <compound>
C[C@@H]1CCCN(C(=O)c2cccc(F)c2-n2nccn2)[C@@H]1CNc1ccc(C(F)(F)F)cn1

>  <metric>
pIC50

>  <value_qualifier>
=

>  <recorded_measurement>
8.40

$$$$
>  <compound>
Cc1ccc(-n2nccn2)c(C(=O)N2CCC[C@@H](C)[C@H]2CNc2ncc(C#N)cn2)n1

>  <metric>
pIC50

>  <value_qualifier>
=

>  <recorded_measurement>
5.70

$$$$
>  <compound>
Cc1ccc(-c2cccnc2)c(C(=O)N2CCC[C@@H](C)[C@H]2CNc2ccc(Cl)cn2)n1

>  <metric>
pIC50

>  <value_qualifier>
=

>  <recorded_measurement>
7.89

$$$$
>  <compound>
Cc1ccc(-c2cnn(C)c2)c(C(=O)N2CCC[C@@H](C)[C@H]2CNc2ccc(F)cn2)c1

>  <metric>
pIC50

>  <value_qualifier>
=

>  <recorded_measurement>
7.96

$$$$
>  <compound>
Cc1ccc(-c2ccnn2C)c(C(=O)N2CCC[C@@H](C)[C@H]2CNc2nc3cc(Cl)ccc3o2)c1

>  <metric>
pIC50

>  <value_qualifier>
=

>  <recorded_measurement>
6.64

$$$$
>  <compound>
Cc1ccc(-c2ncccn2)c(C(=O)N2CCC[C@@H](C)[C@H]2CNc2ncc(C(F)(F)F)cn2)n1

>  <metric>
pIC50

>  <value_qualifier>
=

>  <recorded_measurement>
8.30

$$$$
>  <compound>
Cc1c(F)ccc(-c2ncccn2)c1C(=O)N1CCC[C@@H](C)[C@H]1CNc1ncc(C(F)(F)F)cn1

>  <metric>
pIC50

>  <value_qualifier>
=

>  <recorded_measurement>
7.52

$$$$
>  <compound>
C[C@@H]1CCCN(C(=O)c2c(F)cccc2-n2nccn2)[C@@H]1CNc1ccc(C(F)(F)F)cn1

>  <metric>
pIC50

>  <value_qualifier>
=

>  <recorded_measurement>
8.40

$$$$
>  <compound>
Cc1ccc(-n2ncc(C)n2)c(C(=O)N2CCC[C@@H](C)[C@H]2CNc2ccc(Cl)cn2)c1

>  <metric>
pIC50

>  <value_qualifier>
=

>  <recorded_measurement>
8.30

$$$$
>  <compound>
Cc1ccc(-c2ncccn2)c(C(=O)N2CCC[C@@H](C)[C@H]2CNc2nc3cc(Cl)ccc3o2)c1

>  <metric>
pIC50

>  <value_qualifier>
=

>  <recorded_measurement>
7.96

$$$$
>  <compound>
Cc1ccc(-n2nccn2)c(C(=O)N2CCC[C@@H](C)[C@H]2CNc2ncc(Cl)cc2F)n1

>  <metric>
pIC50

>  <value_qualifier>
=

>  <recorded_measurement>
8.00

$$$$
>  <compound>
Cc1nc(C(=O)N2CCC[C@@H](C)[C@H]2CNc2ccc(C(F)(F)F)cn2)c(-c2cccc(F)c2)s1

>  <metric>
pIC50

>  <value_qualifier>
>

>  <recorded_measurement>
8.00

$$$$
>  <compound>
C[C@@H]1CCCN(C(=O)c2cc(Cl)ccc2-c2ncccn2)[C@@H]1CNc1ncc(Cl)cn1

>  <metric>
pIC50

>  <value_qualifier>
=

>  <recorded_measurement>
7.74

$$$$
